molecular target: Noradrenaline (NA) reuptake (Rattus norvegicus, UniProt Q63380); construct: synaptosomes are freshly isolated from areas of rat brain; from tissue; host or cells: rat hypothalamus synaptosomes (P2 fraction); assay: Noradrenaline (NA) reuptake inhibition in rat brain synaptosomes (hypothalamus, P2 fraction); assay type: biochemical; details: read-out: NA reuptake, % inhibition [10 μM]
Sequence (Q63380 1-617): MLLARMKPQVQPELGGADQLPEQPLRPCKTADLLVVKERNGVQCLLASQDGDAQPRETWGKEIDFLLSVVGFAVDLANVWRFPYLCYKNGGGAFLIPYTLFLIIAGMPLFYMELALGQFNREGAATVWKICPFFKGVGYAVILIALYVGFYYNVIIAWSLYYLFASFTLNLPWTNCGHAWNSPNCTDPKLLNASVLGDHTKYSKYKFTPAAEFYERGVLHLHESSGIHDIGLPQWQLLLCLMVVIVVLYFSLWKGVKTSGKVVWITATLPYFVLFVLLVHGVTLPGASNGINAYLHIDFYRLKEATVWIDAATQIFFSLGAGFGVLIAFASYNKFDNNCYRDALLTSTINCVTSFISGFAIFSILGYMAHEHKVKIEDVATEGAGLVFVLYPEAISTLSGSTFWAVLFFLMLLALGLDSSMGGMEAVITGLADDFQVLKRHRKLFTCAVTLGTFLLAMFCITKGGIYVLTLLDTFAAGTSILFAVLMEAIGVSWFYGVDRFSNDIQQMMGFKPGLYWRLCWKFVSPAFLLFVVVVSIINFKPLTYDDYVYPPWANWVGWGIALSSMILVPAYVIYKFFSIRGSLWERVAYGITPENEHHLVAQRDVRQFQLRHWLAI

[
  {
    "Molecule": "CN(C)C(c1ccccc1)C1CCC(CO)CC1 (stereo not drawn)",
    "inhibition at 10 µM [%]": 82
  },
  {
    "Molecule": "CCOC(=O)C=C1CCC(C(c2ccc(F)cc2)N(C)C)CC1 (stereo not drawn)",
    "inhibition at 10 µM [%]": 81
  },
  {
    "Molecule": "CN(C)C(c1cccc(F)c1)C1CCC(O)CC1 (stereo not drawn)",
    "inhibition at 10 µM [%]": 82
  }
]

---

target: human μ-opiate receptor (Homo sapiens, UniProt P35372); experiment: Affinity for the human μ-opiate receptor ([3H]-naloxone displacement, SPA, CHO-K1 membrane preparation); type: binding; conditions: read-out: μ-Opioid receptor, Ki
Sequence (P35372 whole entry): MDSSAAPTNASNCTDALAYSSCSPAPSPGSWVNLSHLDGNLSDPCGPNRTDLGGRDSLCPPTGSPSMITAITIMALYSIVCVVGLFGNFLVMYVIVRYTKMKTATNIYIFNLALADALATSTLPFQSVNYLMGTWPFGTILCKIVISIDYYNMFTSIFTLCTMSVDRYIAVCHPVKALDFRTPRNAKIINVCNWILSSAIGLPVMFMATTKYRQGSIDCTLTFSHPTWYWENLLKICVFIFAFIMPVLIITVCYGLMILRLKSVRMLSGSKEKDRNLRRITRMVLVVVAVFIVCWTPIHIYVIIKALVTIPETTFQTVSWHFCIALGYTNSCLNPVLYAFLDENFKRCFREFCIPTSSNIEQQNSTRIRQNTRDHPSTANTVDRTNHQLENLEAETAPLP
Where a name gives a salt, the structure may show the parent alone.
Readout: log10 Ki (log10 of the value in nM)

[
  {
    "Compound": "CSc1ncccc1C(=O)NCC1CCC(C(c2ccc(Cl)cc2)N(C)C)CC1 (centres unmarked) [compound 315]",
    "log10 Ki": 2.20
  },
  {
    "Compound": "CCSc1ncccc1C(=O)NCC1CCC(C(c2ccccc2)N(C)C)CC1 (centres unmarked) [compound 310]",
    "log10 Ki": 1.20
  },
  {
    "Compound": "COc1ccc(C(=O)NCCC2CCC(C(c3ccccc3)N(C)C)CC2)c(OC)c1 (centres unmarked) [compound 478]",
    "log10 Ki": 1.43
  },
  {
    "Compound": "CCC(C(=O)NC1CCC(C(c2ccccc2)N(C)C)CC1)c1ccccc1 (single isomer, unassigned) [compound 250]",
    "log10 Ki": 1.56
  },
  {
    "Compound": "CN(C)C(c1cccs1)C1CCC(CCNC(=O)c2ccc(F)c(F)c2)CC1 (centres unmarked) [compound 446]",
    "log10 Ki": 0.81
  },
  {
    "Compound": "CN(C)C(c1ccc(F)cc1)C1CCC(CCNC(=O)c2cccc(Cl)c2)CC1 (single isomer, unassigned) [compound 423]",
    "log10 Ki": 1.18
  },
  {
    "Compound": "CN(C)C(c1cccs1)C1CCC(CCNC(=O)c2ccccc2Cl)CC1 (centres unmarked) [compound 425]",
    "log10 Ki": 0.78
  },
  {
    "Compound": "CN(C)C(c1ccccc1)C1CCC(CCNC(=O)c2cccs2)CC1 (centres unmarked) [compound 452]",
    "log10 Ki": 1.08
  },
  {
    "Compound": "CC(Oc1ccccc1)C(=O)NCC1CCC(C(c2ccccc2)N(C)C)CC1 (centres unmarked) [compound 323]",
    "log10 Ki": 1.18
  },
  {
    "Compound": "CN(C)C(c1ccccc1)C1CCC(NCc2ccc(F)cc2)CC1 (centres unmarked) [compound 91, hydrochloride]",
    "log10 Ki": 0.91
  },
  {
    "Compound": "CN(C)C(c1ccccc1)C1CCC(CNC(=O)c2ccc(F)c(F)c2)CC1 (single isomer, unassigned) [compound 294]",
    "log10 Ki": 0.92
  }
]
